B1: CAMK2A (parent)
chain: ILLVGYPPFWDEDQHRLYKQIKAG

Variants of: B1
Assay: protein stability index of a GFP-peptide fusion (GPS, HEK-293T) (PSI 1-6); higher = more stable;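 further: lentivirally expressed fusions sorted by FACS into six bins by GFP to DsRed ratio, PSI derived from sequencing read proportions per bin multiplied by bin number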
Conditions: c terminus: a fixed tail appended
metric: protein stability index
Lab note: record just the number, no unit beside it.

# variant `D13F` ; its protein stability index = 3.02

# variant `I1M` ; its protein stability index = 1.8

Consider `L17N` . Its measured protein stability index is 1.31

Form field protein stability index, entry `P7I` : 2.46

Memo: `R16L` , reported protein stability index: 2.27

Lab note: measured protein stability index of `D11H` was 2.29

Please fill in: protein stability index reported for `E12T` = 1.96

Per the records, this variant ( `P7E` ) has protein stability index equal to 1.43

The reported value for `E12P` in terms of protein stability index is 2.84

Form field protein stability index, entry `I21P` : 1.42

Form field protein stability index, entry `Q14E` : 2.01

Entry under test: `I21G` . Its protein stability index was 1.54

Reported protein stability index for `Y6G` was 2.23

protein stability index measured on `D11M` = 2.52

Kindly note the recorded protein stability index for `F9Q` , which is 2.38

Recorded result, `A23T` , protein stability index: 1.27

`Q20H` has a reported protein stability index of 2.86

protein stability index reported for this variant `W10D` : 1.69

The reported protein stability index of the variant `P7D` was 1.39

Measured protein stability index of `Y6W` : 3.13

Summary for this variant, `W10E` : protein stability index is 1.78

Noted for `I21H` : its protein stability index reads 1.47

Reported protein stability index ( `Q14K` ) = 1.68

response.value for `P8F` (field: protein stability index) = 2.95

Consider `F9N` . Its measured protein stability index is 2.86

Looking up `G24Y` , I found its protein stability index recorded as 2.39

Documented protein stability index of `A23I` : 2.82

protein stability index reported for this variant `A23D` : 1.98

Measured protein stability index, `Y18M` : 2.16

// recorded protein stability index for `E12Q` : 3.3

Given item `V4R` , the value recorded as its protein stability index is 1.47

The variant `W10N` showed protein stability index equal to 1.71

Value of protein stability index reported for the variant `I21C` is 2.35

Item: `L2C` | protein stability index: 2.11

Record `D13S` , field protein stability index: 2.06

The variant listed as `W10L` has a reported protein stability index of 2.54

Form: variant = `P7G` ; protein stability index = 2.31

Form: variant = `K22H` ; protein stability index = 1.52

Item: `K22D` | protein stability index: 1.97

# protein stability index of `F9H` = 1.84

protein stability index reading for `P7V` : 2.63

protein stability index measured on `K19V` = 2.9

Form: variant = `H15N` ; protein stability index = 2.2

Per the record, `Q20M` has protein stability index of 2.36

Field protein stability index (entry `E12H` ) reads 2.29

So for `G24E` , the logged protein stability index turned out to be 1.36

Source listed as the supplement of paper PMC10567573.
